Measurement Kind: Ki

Form: Entry = `CC(C)COc1ccc(CNC(=O)N(Cc2ccc(F)cc2)C2CCN(C)CC2)cc1` | System = norepinephrine transporter (Homo sapiens, UniProt P23975) | Ki = ____ > 1000 nM

What is its Ki for norepinephrine transporter (Homo sapiens, UniProt P23975)? Entry: `N#Cc1c[nH]c2c(C(=O)N3CCN(CCc4ccc(F)cc4)CC3)cccc12` > 1000 nM

Item `Cc1nc2sccn2c(=O)c1CCN1CCC(=C(c2ccc(F)cc2)c2ccc(F)cc2)CC1` with norepinephrine transporter (Homo sapiens, UniProt P23975) - Ki? > 1000 nM

====

- Tgt: UniProtKB P28335
- Sequence (P28335 33-458): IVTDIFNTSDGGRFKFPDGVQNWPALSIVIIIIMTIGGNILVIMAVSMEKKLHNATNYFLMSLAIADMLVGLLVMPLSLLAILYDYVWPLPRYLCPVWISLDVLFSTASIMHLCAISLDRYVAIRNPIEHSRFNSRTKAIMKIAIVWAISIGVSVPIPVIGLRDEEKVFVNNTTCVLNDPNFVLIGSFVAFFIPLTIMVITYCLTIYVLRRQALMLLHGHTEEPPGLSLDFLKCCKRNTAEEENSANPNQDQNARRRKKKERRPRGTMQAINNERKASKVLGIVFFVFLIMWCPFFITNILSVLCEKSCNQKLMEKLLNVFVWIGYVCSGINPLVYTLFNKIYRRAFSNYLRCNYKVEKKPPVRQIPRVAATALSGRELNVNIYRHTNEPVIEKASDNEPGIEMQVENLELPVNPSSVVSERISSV
- Experiment Summary: Receptor profile: affinity (Ki) at 5-HT2C
- Format: binding
- Assay Conditions: data on file
Measurement Kind: pKi
The value called pKi is obtained by taking minus log10 of the concentration in mol/L.

What does the record list as pKi for Cc1nc2sccn2c(=O)c1CCN1CCC(=C(c2ccc(F)cc2)c2ccc(F)cc2)CC1 [RIT, ritanserin] ? 8.52

====

- Tgt: 5-HT2A (Homo sapiens, UniProt P28223)
- Sequence (P28223 whole entry, species assumed): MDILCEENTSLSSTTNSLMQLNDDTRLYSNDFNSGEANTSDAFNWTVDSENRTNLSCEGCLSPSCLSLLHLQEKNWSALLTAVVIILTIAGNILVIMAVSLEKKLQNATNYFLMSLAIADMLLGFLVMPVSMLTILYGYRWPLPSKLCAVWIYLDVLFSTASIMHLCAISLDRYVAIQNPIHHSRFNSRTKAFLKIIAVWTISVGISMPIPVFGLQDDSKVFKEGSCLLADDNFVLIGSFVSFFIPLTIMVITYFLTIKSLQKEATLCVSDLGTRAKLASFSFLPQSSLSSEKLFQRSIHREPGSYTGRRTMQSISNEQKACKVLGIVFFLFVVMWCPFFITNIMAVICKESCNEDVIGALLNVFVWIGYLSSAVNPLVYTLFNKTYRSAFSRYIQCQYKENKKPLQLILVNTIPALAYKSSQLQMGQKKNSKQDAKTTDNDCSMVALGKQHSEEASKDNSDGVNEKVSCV
Measurement Kind: Ki (nM)
Provide only the numeric value, understood in nM.

What Ki appears in the records for this molecule with 5-HT2A (Homo sapiens, UniProt P28223)? `N#Cc1c[nH]c2c(C(=O)N3CCN(CCc4ccc(F)cc4)CC3)cccc12` 0.7
